- Assay System: Recombinant human PARP1 protein (Homo sapiens, UniProt P09874)
- Sequence (P09874 whole entry): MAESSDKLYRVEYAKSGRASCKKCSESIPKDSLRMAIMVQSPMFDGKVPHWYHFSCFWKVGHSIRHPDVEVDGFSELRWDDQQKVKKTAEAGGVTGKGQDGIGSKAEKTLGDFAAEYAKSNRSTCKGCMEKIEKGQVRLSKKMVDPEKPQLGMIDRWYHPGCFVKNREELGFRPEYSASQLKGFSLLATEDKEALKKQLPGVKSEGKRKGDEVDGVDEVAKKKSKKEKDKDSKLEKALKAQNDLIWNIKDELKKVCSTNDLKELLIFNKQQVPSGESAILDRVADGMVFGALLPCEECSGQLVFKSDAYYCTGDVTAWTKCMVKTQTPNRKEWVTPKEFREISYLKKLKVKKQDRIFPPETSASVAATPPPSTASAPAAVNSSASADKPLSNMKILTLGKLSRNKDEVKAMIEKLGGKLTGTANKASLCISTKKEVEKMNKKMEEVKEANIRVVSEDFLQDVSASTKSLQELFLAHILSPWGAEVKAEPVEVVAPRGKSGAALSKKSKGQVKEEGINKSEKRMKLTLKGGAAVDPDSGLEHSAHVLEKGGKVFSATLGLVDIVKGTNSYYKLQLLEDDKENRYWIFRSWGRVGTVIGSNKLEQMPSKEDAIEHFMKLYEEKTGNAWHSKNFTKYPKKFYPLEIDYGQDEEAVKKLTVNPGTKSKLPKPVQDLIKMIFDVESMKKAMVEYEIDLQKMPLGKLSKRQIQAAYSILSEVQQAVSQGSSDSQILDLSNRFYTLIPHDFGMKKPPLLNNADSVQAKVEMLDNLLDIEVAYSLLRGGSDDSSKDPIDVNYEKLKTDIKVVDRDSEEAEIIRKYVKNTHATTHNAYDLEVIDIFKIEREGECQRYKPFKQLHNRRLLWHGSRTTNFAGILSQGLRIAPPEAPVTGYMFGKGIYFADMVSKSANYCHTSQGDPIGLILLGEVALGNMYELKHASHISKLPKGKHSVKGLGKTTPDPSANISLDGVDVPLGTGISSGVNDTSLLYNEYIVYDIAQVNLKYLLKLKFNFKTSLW
- Protocol Details: PARP1 inhibitory activity (histone substrate, chemiluminescent ELISA)
- Assay type: biochemical
- Applied Conditions: ratio of PARP2 IC50 to PARP1 IC50
Endpoint Name: PARP1/2 Fold selectivity
Answer field: number only, no words.

Identify the measured PARP1/2 Fold selectivity of `CNC(=O)c1ccc(N2CCN(Cc3cc4cnn5c4c(c3F)NC(=O)C53CC3)CC2)c(Cl)n1` for Recombinant human PARP1 protein (Homo sapiens, UniProt P09874).
719

Please do the same for `CNC(=O)c1ccc(N2CCN(Cc3cc4c5c(cnn5[C@H](C5CC5)C(=O)N4)c3)CC2)c(Cl)n1` as well.
133.3

Record: `CNC(=O)c1ccc(N2CCN(Cc3cc4c5c(c3)ncn5[C@@H](C3CC3)C(=O)N4)CC2)c(C)n1`
1852

// same read-out, input: `CNC(=O)c1ccc(N2CCN(Cc3cc4c5c(cnn5[C@@H](C5CC5)C(=O)N4)c3)CC2)c(Cl)n1`
344.5

Same read-out for `CCCN1C(=O)Nc2cc(CN3CCN(c4ccc(C(=O)NC)nc4C)CC3)cn3ncc1c23` ?
422.3
